Data provenance: patent US20240199692A1

SUBJECT OF TEST: MMP2 (Homo sapiens, UniProt P08253)
Sequence (P08253 110-660): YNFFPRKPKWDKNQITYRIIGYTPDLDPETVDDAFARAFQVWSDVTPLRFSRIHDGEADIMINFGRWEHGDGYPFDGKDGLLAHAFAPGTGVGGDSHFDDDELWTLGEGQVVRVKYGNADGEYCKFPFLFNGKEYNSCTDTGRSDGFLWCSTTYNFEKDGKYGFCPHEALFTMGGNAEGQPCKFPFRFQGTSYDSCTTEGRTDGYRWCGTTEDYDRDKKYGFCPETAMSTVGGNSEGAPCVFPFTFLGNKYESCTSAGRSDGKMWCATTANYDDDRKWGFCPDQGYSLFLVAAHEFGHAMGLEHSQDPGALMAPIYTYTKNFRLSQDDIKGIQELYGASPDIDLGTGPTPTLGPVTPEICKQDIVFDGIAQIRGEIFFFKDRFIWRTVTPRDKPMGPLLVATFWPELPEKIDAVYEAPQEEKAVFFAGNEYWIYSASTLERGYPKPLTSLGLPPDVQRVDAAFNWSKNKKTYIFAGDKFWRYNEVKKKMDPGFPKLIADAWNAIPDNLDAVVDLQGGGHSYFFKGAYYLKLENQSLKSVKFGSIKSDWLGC
PROTOCOL SUMMARY: Inhibitory effects on human MMP2 (Method 1), enzyme assay with MOCAc-Pro-Leu-Gly-Leu-A2pr(Dnp)-Ala-Arg-NH2 substrate, 96-well
Type: biochemical
EXPERIMENTAL CONDITIONS: Test Example No. 1-1 (Method 1, 96-well microplate); read-out: Human MMP2, IC50
pIC50: −log10 of the molar value. *1 amine or outer side, *2 acyl side, *3 side chain or, on linkers, in order; H or OH if unused. Where a SMILES comes first, the peptide text is derived from it. [ ]: non-standard residue; d: D form. The star is where a group is joined. Benzoyl(4-(4-EtNHCO-PhO)) = CCNC(=O)c1ccc(Oc2ccc(C(=O)*)cc2)cc1; X17 = CC(=O)Nc1ccc(-c2ccc(S(=O)(=O)*)cc2)cc1; d(βAsp) = O=C(O)[C@@H](CC(=O)[*:2])N[*:1]; NMeI = CC[C@H](C)[C@H](NC)C(=O)O; NMeE = CN[C@@H](CCC(=O)O)C(=O)O; β3hP = O=C(O)C[C@@H]1CCCN1; Dab = NCC[C@H](N)C(=O)O; Ava = NCCCCC(=O)O
VALUE KIND: pIC50

| MOLECULE | SUBJECT OF TEST | VALUE KIND | VALUE OBSERVED |
| --- | --- | --- | --- |
| CC[C@H](C)[C@@H](C(=O)N1CCC[C@H]1CC(N)=O)N(C)C(=O)[C@H](CC(C)C)NC(=O)[C@H](C)NC(=O)C[C@@H](NS(=O)(=O)c1ccc(-c2ccc(NC(C)=O)cc2)cc1)C(=O)O [Compound 636] ({X17-d(βAsp)}-AL[NMeI][β3hP]-NH2; N-terminus assumed) | MMP2 (Homo sapiens, UniProt P08253) | pIC50 | 9.03 |
| CCNC(=O)c1ccc(Oc2ccc(C(=O)NCCCCC(=O)N[C@@H](CCCNC(=N)N)C(=O)N[C@@H](CC(=O)O)C(=O)N[C@@H](CCN)C(=O)N[C@@H](CC(C)C)C(=O)N(C)[C@H](C(=O)N3CCC[C@H]3CC(N)=O)[C@@H](C)CC)cc2)cc1 [Compound 197] ({Benzoyl(4-(4-EtNHCO-PhO))-Ava}-RD[Dab]L[NMeI][β3hP]-NH2; N-terminus assumed) | MMP2 (Homo sapiens, UniProt P08253) | pIC50 | 8.59 |
| CCNC(=O)c1ccc(Oc2ccc(C(=O)NCCCCC(=O)N[C@@H](CCCNC(=N)N)C(=O)N[C@@H](CC(=O)O)C(=O)N[C@@H](CCN)C(=O)N[C@@H](CC(C)C)C(=O)N(C)[C@@H](CCC(=O)O)C(=O)N3CCC[C@H]3CC(N)=O)cc2)cc1 [Compound 196] ({Benzoyl(4-(4-EtNHCO-PhO))-Ava}-RD[Dab]L[NMeE][β3hP]-NH2; N-terminus assumed) | MMP2 (Homo sapiens, UniProt P08253) | pIC50 | 8.77 |
